SYSTEM TESTED: α7-nAChR (Homo sapiens)
Construct: host or cells: GH4-hα7 (rat pituitary tumor GH4 cells stably transfected with human α7-nAChR)
TEST SUMMARY: Saturation binding on cell membranes after chronic 24 hr peptide treatment of GH4-hα7 cells
Type: cell-based
CONDITION NOTES: 24 hr treatment with 100 nM peptide; read-out: Kd±SEM, receptor affinity for α-BTX
Where no end group is shown, it is not given here.
For each entry below, report its pKd value.
Note: pKd values are expressed as the negative base-10 logarithm of concentration in M.

Field pKd (entry AEFHRWSSYMVHWK [T14] ) reads 8.04

Memo: NQFDHYSKQERCSDL [T15] , reported pKd: 8.31

Looking up KAEFHRWSSYMVHWKNQFDHYSKQERCSDL [T30] , I found its pKd recorded as 7.92

###

SYSTEM TESTED: α7-nAChR (Homo sapiens, UniProt P36544)
Construct: host or cells: GH4-hα7 (rat pituitary tumor GH4 cells stably transfected with human α7-nAChR)
Sequence (P36544 23-502): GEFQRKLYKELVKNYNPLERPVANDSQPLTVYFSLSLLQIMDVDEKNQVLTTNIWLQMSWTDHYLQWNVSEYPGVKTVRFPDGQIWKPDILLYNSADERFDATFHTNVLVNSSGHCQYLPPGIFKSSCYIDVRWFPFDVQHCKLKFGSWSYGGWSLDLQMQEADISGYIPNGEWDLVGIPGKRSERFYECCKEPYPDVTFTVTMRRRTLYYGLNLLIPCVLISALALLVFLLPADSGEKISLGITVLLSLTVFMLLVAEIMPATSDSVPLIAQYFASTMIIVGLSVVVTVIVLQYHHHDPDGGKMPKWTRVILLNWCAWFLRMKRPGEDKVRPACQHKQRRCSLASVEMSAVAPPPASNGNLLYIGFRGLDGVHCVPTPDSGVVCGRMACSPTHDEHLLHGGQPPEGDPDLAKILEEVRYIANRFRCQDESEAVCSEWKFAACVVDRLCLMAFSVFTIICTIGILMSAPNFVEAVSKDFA
TEST SUMMARY: Acute live cell [125I]α-BTX binding in GH4-hα7 cells
CONDITION NOTES: live cells, two-site competition model; read-out: Ki, second lower affinity site
Where no end group is shown, it is not given here.
PARAMETER MEASURED: pKi
// returns pKi (minus log10 of molar concentration), number only

According to the records, this sequence KAEFHRWSSYMVHWKNQFDHYSKQERCSDL [T30] displays pKi of 7.33
